The measured values listed here are drawn from PubChem BioAssay (NCI).

Measured growth, listed per entry for reference.
# Test system: 786-0 renal
# ASSAY_PROCEDURE: NCI-60 one-dose screen, 48 h (100 = growth as untreated, 0 = no growth, -100 = all killed)
# PARTICULARS: 10 µM
# Method: Cells are grown in 96 well plates and exposed to the test compound for 48 hours. Compounds are tested at a single concentration, which is 10^-5 M for most compounds. The reported endpoint is percent growth (GI% or GIPRCNT), where numbers from 0 - 100% represent growth inhibition, and numbers from -100% - 0 represent cell death. For example, a value of 40 represents 60% growth inhibition. A value of 0 means no net growth occurred over the course of the experiment. […]
Compounds without any hit were thinned out: in the full panel of roughly 83,000, 20% have a hit. Calls of active or inactive are those of the source. Rule for the calls: active = growth percent below 10; inactive = the rest.

{"MOLECULE": "CCCCCc1ccc(S(=O)(=O)Nc2cc(-c3csc(N(C)C(C)=O)n3)ccc2N2CCN(C)CC2)cc1", "TEST_TARGET": "786-0 renal", "growth": "8.85% (active)"}
{"MOLECULE": "COc1ccc(-c2c(N)c(=O)n(C)c3ccccc23)cc1", "TEST_TARGET": "786-0 renal", "growth": "73.5% (inactive)"}
{"MOLECULE": "COc1ccc(-c2ccc(/C=N/NC(=O)c3[nH]c4ccc(Br)cc4c3-c3ccccc3)s2)cc1", "TEST_TARGET": "786-0 renal", "growth": "112% (inactive)"}
{"MOLECULE": "Cc1ccc(C(=O)NCCCNc2nc(Nc3ccc(N4CCN(C)CC4)cc3)nc3ccsc23)cc1", "TEST_TARGET": "786-0 renal", "growth": "-11.6% (active)"}
{"MOLECULE": "CCCn1c(O)c(N=Nc2nc(-c3cc4ccccc4oc3=O)cs2)c2cc(Br)ccc21", "TEST_TARGET": "786-0 renal", "growth": "75.1% (inactive)"}
{"MOLECULE": "CN1CCN(c2ccc(Nc3nc(N4CCN(S(=O)(=O)c5ccc(Cl)cc5)CC4)c4sccc4n3)cc2)CC1", "TEST_TARGET": "786-0 renal", "growth": "-62.9% (active)"}
{"MOLECULE": "Cc1ccc2nc(COc3ccc(C(=O)NNC(=S)NCCc4ccccc4)cc3)[nH]c2c1", "TEST_TARGET": "786-0 renal", "growth": "61% (inactive)"}
{"MOLECULE": "O=C(Nc1nc2ccccc2s1)c1ccc(Br)cc1", "TEST_TARGET": "786-0 renal", "growth": "99.6% (inactive)"}
{"MOLECULE": "O=C(c1ccccc1)n1ccc(-c2cc3cc(Br)ccc3oc2=O)n1", "TEST_TARGET": "786-0 renal", "growth": "16.1% (inactive)"}
{"MOLECULE": "COc1ccc(/C(C)=N/N=C2C(=O)N(C)c3ccc(Br)cc32)cc1S(N)(=O)=O", "TEST_TARGET": "786-0 renal", "growth": "71.4% (inactive)"}
{"MOLECULE": "CCOc1ccc(Nc2nc3ccccc3nc2Nc2ccc(OCC)cc2)cc1", "TEST_TARGET": "786-0 renal", "growth": "32.1% (inactive)"}
{"MOLECULE": "O=C(Nc1nc2ccc([N+](=O)[O-])cc2s1)Nc1ccccc1I", "TEST_TARGET": "786-0 renal", "growth": "0.486% (active)"}
{"MOLECULE": "COC(=O)C(Cc1ccc(O)c(O)c1)NC(=O)C(CSC/C=C(\\C)CCCC(C)CCCC(C)CCCC(C)C)NC(C)=O (stereo unspecified)", "TEST_TARGET": "786-0 renal", "growth": "51.4% (inactive)"}
{"MOLECULE": "Clc1cccc(N/N=C/c2c[nH]c3ccccc23)n1", "TEST_TARGET": "786-0 renal", "growth": "13.7% (inactive)"}
{"MOLECULE": "O=c1c2ccccc2nc(COc2ccccc2)n1/N=C/c1ccc(N2CCCC2)cc1", "TEST_TARGET": "786-0 renal", "growth": "92.8% (inactive)"}
{"MOLECULE": "CN1CCO/C1=C(/NC(=O)c1ccc(Cl)cc1)[P+](c1ccccc1)(c1ccccc1)c1ccccc1", "TEST_TARGET": "786-0 renal", "growth": "103% (inactive)"}
{"MOLECULE": "COc1ccc(CN2[C@@H](C(=O)NCc3ccc(C(=O)NO)cc3)Cc3c([nH]c4ccccc34)[C@@H]2C2CC2)cc1", "TEST_TARGET": "786-0 renal", "growth": "28.4% (inactive)"}
{"MOLECULE": "Nc1nnc(-c2c[nH]c3ccc(F)cc23)c(-c2c[nH]c3ncccc23)n1", "TEST_TARGET": "786-0 renal", "growth": "44% (inactive)"}
{"MOLECULE": "O=C1c2ccccc2C(=O)c2c1c(C(=O)c1ccc(Cl)cc1)n1c2ccc2c3ccccc3ccc21", "TEST_TARGET": "786-0 renal", "growth": "110% (inactive)"}
{"MOLECULE": "Cc1ccc(CNC(=O)Cc2ccc3c(c2)CN(C2CCC(=O)NC2=O)C3=O)cc1 (stereo unspecified)", "TEST_TARGET": "786-0 renal", "growth": "0.61% (active)"}
{"MOLECULE": "CS(=O)(=O)Nc1ccc(-c2ccc3c(c2)ncn3-c2ccc(NC(=O)Nc3ccc(Cl)c(C(F)(F)F)c3)cc2)cc1", "TEST_TARGET": "786-0 renal", "growth": "-77.9% (active)"}
{"MOLECULE": "COc1ccsc1/C=N/NC(=O)c1[nH]c2ccc(Br)cc2c1-c1ccccc1", "TEST_TARGET": "786-0 renal", "growth": "1.8% (active)"}
{"MOLECULE": "CCOC(=O)C(Cc1ccccc1)N1C(=O)/C(=C/N2N=C(c3ccc(OC)cc3)CC2c2ccc3ccccc3c2)SC1=S (stereo unspecified)", "TEST_TARGET": "786-0 renal", "growth": "13.8% (inactive)"}
{"MOLECULE": "O=C(O)CCCCCCCCCCN1C(=O)/C(=C/c2cnc(-c3ccccc3)s2)SC1=S", "TEST_TARGET": "786-0 renal", "growth": "79.3% (inactive)"}
{"MOLECULE": "CCOC(=O)C1=C(N)N(c2ccc(Cl)cc2)C2=C(C(=O)CC(C)(C)C2)C1c1ccc(N2CCOCC2)cc1 (stereo unspecified)", "TEST_TARGET": "786-0 renal", "growth": "89.4% (inactive)"}
{"MOLECULE": "Brc1ccc(/C=N/Nc2ncnc3sc4c(c23)CCN(Cc2ccccc2)C4)cc1", "TEST_TARGET": "786-0 renal", "growth": "48.5% (inactive)"}
{"MOLECULE": "O=C(NO)c1ccc(CN2CCN(c3nc(-c4ccccc4)c4ccccc4n3)CC2)cc1", "TEST_TARGET": "786-0 renal", "growth": "14% (inactive)"}
{"MOLECULE": "C/C(=C\\CC/C=C(\\C)CC/C=C(\\C)CC[C@@H](O)C(C)(C)O)CC/C=C(\\C)CC[C@@H](O)C(C)(C)O", "TEST_TARGET": "786-0 renal", "growth": "47.4% (inactive)"}
{"MOLECULE": "CN1CCN(c2ccc(Nc3nc(NCCNC(=O)c4ccc(C(F)(F)F)cc4)c4sccc4n3)cc2)CC1", "TEST_TARGET": "786-0 renal", "growth": "-56.6% (active)"}
{"MOLECULE": "O=C(NO)c1ccc(Cn2ccc3c(Nc4ccccc4)ncnc32)cc1", "TEST_TARGET": "786-0 renal", "growth": "31% (inactive)"}
{"MOLECULE": "CC(=O)Nc1ccc(-c2cn(-c3cccc(C(=O)Nc4cc(C(F)(F)F)cc(C(F)(F)F)c4)c3)nn2)cn1", "TEST_TARGET": "786-0 renal", "growth": "-42.8% (active)"}
{"MOLECULE": "C=C(C)[C@@H]1CC[C@]2(C(=O)OC)CC[C@]3(C)[C@H](CC[C@@H]4[C@@]5(C)CC[C@H](N)C(C)(C)[C@@H]5CC[C@]43C)[C@@H]12", "TEST_TARGET": "786-0 renal", "growth": "-98% (active)"}
{"MOLECULE": "O=c1oc2ccc(-c3ccc(F)cc3F)cc2c(=O)n1-c1ccc(F)cc1", "TEST_TARGET": "786-0 renal", "growth": "8.17% (active)"}
{"MOLECULE": "CN(CCO)c1oc(-c2ccccc2)nc1[P+](c1ccccc1)(c1ccccc1)c1ccccc1", "TEST_TARGET": "786-0 renal", "growth": "14.2% (inactive)"}
{"MOLECULE": "O=C(Nc1ccc(F)c(Cl)c1)c1cc(-c2ccc(F)cc2F)ccc1O", "TEST_TARGET": "786-0 renal", "growth": "9.93% (active)"}
{"MOLECULE": "CCOC(=O)CNC(=O)CN(Cc1ccccc1)C(=O)[C@@]1(C)CCC[C@]2(C)[C@H]3CC4C(C(C)C)=C[C@]3(CC[C@H]21)[C@@H]1C(=O)CCC(=O)[C@H]41", "TEST_TARGET": "786-0 renal", "growth": "78.1% (inactive)"}
